- Tested on: human prostate cancer cell line (DU-145)
- method-notes: Growth inhibitory activity assay (MTT assay), in vitro antiproliferative activity
- Assay type: cell-based
- test-context: Homo sapiens, DU-145, 48 h, DU-145 cells, 0.5 μg/ml, 48 hr; read-out: % growth inhibition (mean ± SEM)
Assignment: determine reported inhibition at 0.5 µg/mL for the given compounds.
Answers are plain numbers, in %.

Some entries whose results are on file:
compound	quantity-kind	numeric-result
C[C@]12CC[C@H](OC(=O)c3ccc(O)cc3)CC1=CC[C@@H]1[C@@H]2CC[C@]2(C)C(=NO)CC[C@@H]12 [Compound 15]	inhibition at 0.5 µg/mL	76.9
C[C@]12CC[C@H](OC(=O)c3ccccc3)CC1=CC[C@@H]1[C@@H]2CC[C@]2(C)C(=NO)CC[C@@H]12 [Compound 13, 17-oximino-5-androsten-3β-yl benzoate]	inhibition at 0.5 µg/mL	48.9

Next, consider the following compound.
Incoming: Report inhibition at 0.5 µg/mL for C[C@]12CC[C@H](OC(=O)c3ccc(Cl)cc3)CC1=CC[C@@H]1[C@@H]2CC[C@]2(C)C(=NO)CC[C@@H]12 [Compound 10] please.
Outgoing: 57.1

---

- System: mouse macrophages (Balb C)
- method-notes: In vitro cytotoxicity using mouse macrophages (acute toxicity), MTT assay
- Type: cell-based
- test-context: both, Balb C, mouse, 48 h, 1 μg/ml
quantity-kind: % viable Cells (mean ± SEM) (%)
Answers are plain numbers, in %.

> print(dat)
                                   compound  numeric.result
1  C[C@]12CC[C@H](OC(=O)c3ccc(Cl)cc3)CC1=CC[C@@H]1[C@@H]2CC[C@]2(C)C(=NO)CC[C@@H]12           77.40
2  C[C@]12CC[C@H](OC(=O)c3ccc(O)cc3)CC1=CC[C@@H]1[C@@H]2CC[C@]2(C)C(=NO)CC[C@@H]12           63.99
3  CC(C)(C)NC(=O)[C@H]1CC[C@H]2[C@@H]3CC[C@H]4NC(=O)C=C[C@]4(C)[C@H]3CC[C@]12C [Finasteride, reference compound]           93.32
4  Cc1ccc(C(=O)O[C@H]2CC[C@@]3(C)C(=CC[C@@H]4[C@@H]3CC[C@]3(C)C(=NO)CC[C@@H]43)C2)cc1           73.03
5  C[C@]12CC[C@H](OC(=O)c3ccc(N)cc3)CC1=CC[C@@H]1[C@@H]2CC[C@]2(C)C(=NO)CC[C@@H]12           76.80

Next, consider the following compound.
Incoming: Report % viable Cells (mean ± SEM) for C[C@]12CC[C@H](OC(=O)c3ccc([N+](=O)[O-])cc3)CC1=CC[C@@H]1[C@@H]2CC[C@]2(C)C(=NO)CC[C@@H]12 please.
Outgoing: 76.74

---

- Test system: human prostate cancer cell line (DU-145)
- method-notes: Growth inhibitory activity assay (MTT assay), in vitro antiproliferative activity
- Format: cell-based
- test-context: DU-145 cells, 5.0 μg/ml, 48 hr
- Description: 1) In Vitro Antiproliferative Activity Against Human Prostate Cancer Cell Line (DU-145) Compounds were screened for antiproliferative activity on human prostate cell line DU-145 at National Centre of Human Genome Studies and Research. Panjab University, Chandigarh. […] We investigated the effect of newly synthesized compounds on cell growth inhibition using MTT assay. This assay quantifies the viable cells by observing the reduction of tetrazolium salt, MTT to formazan crystals by the live cells. […]
Assignment: determine reported % growth inhibition (mean ± SEM) for the given molecules.
Please give the number followed by its unit.

Some entries whose results are on file:
molecule	% growth inhibition (mean ± SEM)
C[C@]12CC[C@H](OC(=O)c3ccc([N+](=O)[O-])cc3)CC1=CC[C@@H]1[C@@H]2CC[C@]2(C)C(=NO)CC[C@@H]12 [Compound 11]	81.53 ± 1.79%
C[C@]12CC[C@H](OC(=O)c3ccc(Cl)cc3)CC1=CC[C@@H]1[C@@H]2CC[C@]2(C)C(=NO)CC[C@@H]12 [Compound 10]	84.47 ± 0.74%

Next, consider the following molecule.
Incoming: Report % growth inhibition (mean ± SEM) for C[C@]12CC[C@H](OC(=O)c3ccccc3)CC1=CC[C@@H]1[C@@H]2CC[C@]2(C)C(=NO)CC[C@@H]12 [Compound 13, 17-oximino-5-androsten-3β-yl benzoate] please.
Outgoing: 91.10 ± 2.10%

---

Assignment: determine reported % viable Cells (mean ± SEM) for the given compounds.
- Tested on: mouse macrophages (Balb C)
- method-notes: In vitro cytotoxicity using mouse macrophages (acute toxicity), MTT assay
- Format: cell-based
- test-context: both, Balb C, mouse, 48 h, 0.01 μg/ml
One number for each entry, in %.

> print(dat)
                              sample.smiles                quantity.kind  numeric.result
1  C[C@]12CC[C@H](OC(=O)c3ccc(Cl)cc3)CC1=CC[C@@H]1[C@@H]2CC[C@]2(C)C(=NO)CC[C@@H]12  % viable Cells (mean ± SEM)           88.22
2  C[C@]12CC[C@H](OC(=O)c3ccc([N+](=O)[O-])cc3)CC1=CC[C@@H]1[C@@H]2CC[C@]2(C)C(=NO)CC[C@@H]12  % viable Cells (mean ± SEM)           88.79

Next, consider the following compound.
Incoming: Report % viable Cells (mean ± SEM) for C[C@]12CC[C@H](OC(=O)c3ccc(O)cc3)CC1=CC[C@@H]1[C@@H]2CC[C@]2(C)C(=NO)CC[C@@H]12 please.
Outgoing: 89.80

Data origin: patent US8435975B2
